The reported measurements were obtained from patent EP2545917B1.

# Procedure details: Plasma pharmacokinetics after intravenous administration to rats
# Type: in vivo
# Applied conditions: male, rat, iv, 50 ug/kg
Readout: half-life (h)
Unit h implied. Number only.

Cc1cccc([C@H](C)[C@H](O)/C=C/[C@@H]2[C@@H]3[C@H](C[C@H]2O)O/C(=C\CCCc2nnn[nH]2)C3(F)F)c1 [Compound J]    1.28

// next item, half-life requested
Indicate its recorded half-life; the compound in question is Cc1cccc([C@@H](C)[C@H](O)/C=C/[C@@H]2[C@@H]3[C@H](C[C@H]2O)O/C(=C\CCCc2nnn[nH]2)C3(F)F)c1 [Compound F] 1.92

* * *

Below, each entry is listed alongside its reported EC50.
# Measured on: Human EP4 (Homo sapiens, UniProt P35408)
# Sequence (P35408 whole entry): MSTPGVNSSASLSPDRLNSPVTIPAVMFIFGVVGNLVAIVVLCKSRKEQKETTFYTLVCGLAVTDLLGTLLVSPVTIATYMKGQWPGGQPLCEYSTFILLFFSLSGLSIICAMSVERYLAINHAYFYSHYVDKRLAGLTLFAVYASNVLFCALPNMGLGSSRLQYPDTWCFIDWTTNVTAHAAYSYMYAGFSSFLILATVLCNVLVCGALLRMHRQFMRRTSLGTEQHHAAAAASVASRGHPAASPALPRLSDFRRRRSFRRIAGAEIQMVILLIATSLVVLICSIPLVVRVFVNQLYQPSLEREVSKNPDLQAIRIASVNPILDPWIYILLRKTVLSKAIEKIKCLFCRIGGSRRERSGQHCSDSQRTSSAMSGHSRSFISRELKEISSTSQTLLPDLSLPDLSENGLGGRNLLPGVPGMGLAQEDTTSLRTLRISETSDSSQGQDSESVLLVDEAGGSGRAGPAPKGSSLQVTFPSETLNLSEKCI
# Procedure details: EP4 agonist activity, CRE-LUC reporter gene in transfected COS-7 cells

Cc1cccc([C@@H](C)[C@H](O)/C=C/[C@@H]2[C@@H]3[C@H](C[C@H]2O)O/C(=C\CCCc2nnn[nH]2)C3(F)F)c1    0.00333 µM
Cc1cccc([C@H](C)[C@H](O)/C=C/[C@@H]2[C@@H]3[C@H](C[C@H]2O)O/C(=C\CCCc2nnn[nH]2)C3(F)F)c1    0.44 µM

Indicate its recorded EC50; the compound in question is CC#CCC(C)[C@H](O)/C=C/[C@@H]1[C@H]2c3cccc(CCCC(=O)O)c3O[C@H]2C[C@H]1O (mixture of isomers) [BPS, beraprost sodium, reference compound] > 1 µM

* * *

# Measured on: Human EP2 (Homo sapiens)
# Sequence (P43116 whole entry): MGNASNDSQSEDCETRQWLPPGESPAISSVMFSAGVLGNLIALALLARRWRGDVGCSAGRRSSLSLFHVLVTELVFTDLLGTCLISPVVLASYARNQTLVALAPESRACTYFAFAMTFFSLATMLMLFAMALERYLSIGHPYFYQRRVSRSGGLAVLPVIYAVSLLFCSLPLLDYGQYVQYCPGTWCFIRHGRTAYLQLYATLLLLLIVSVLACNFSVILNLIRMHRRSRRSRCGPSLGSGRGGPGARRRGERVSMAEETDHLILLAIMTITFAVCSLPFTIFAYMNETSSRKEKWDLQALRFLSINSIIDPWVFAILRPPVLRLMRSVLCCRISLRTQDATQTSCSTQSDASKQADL
Readout: pKi
Note: pKi values are expressed as the negative base-10 logarithm of concentration in M.

Lab note: Human EP2 (Homo sapiens) assay, enter pKi for CC#CCC(C)[C@H](O)/C=C/[C@@H]1[C@H]2c3cccc(CCCC(=O)O)c3O[C@H]2C[C@H]1O (mixture of isomers) [BPS, beraprost sodium, reference compound] here 5.30

* * *

Below, each entry is listed alongside its reported pKi.
Target chain: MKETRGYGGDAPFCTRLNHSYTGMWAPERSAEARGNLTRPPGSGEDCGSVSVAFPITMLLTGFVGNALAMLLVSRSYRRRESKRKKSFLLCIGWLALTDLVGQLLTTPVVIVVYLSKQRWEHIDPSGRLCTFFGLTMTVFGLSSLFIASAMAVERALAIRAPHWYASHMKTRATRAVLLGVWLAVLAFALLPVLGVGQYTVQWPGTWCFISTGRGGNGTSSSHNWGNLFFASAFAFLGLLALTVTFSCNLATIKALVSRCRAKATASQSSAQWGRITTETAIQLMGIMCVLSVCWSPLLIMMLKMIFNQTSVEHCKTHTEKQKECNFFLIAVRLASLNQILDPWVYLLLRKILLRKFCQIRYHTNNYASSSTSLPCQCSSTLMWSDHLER
Note: pKi values are expressed as the negative base-10 logarithm of concentration in M.

CC#CCC(C)[C@H](O)/C=C/[C@@H]1[C@H]2c3cccc(CCCC(=O)O)c3O[C@H]2C[C@H]1O (mixture of isomers) [BPS, beraprost sodium, reference compound]    6.02

// next item, pKi requested
Indicate its recorded pKi; the compound in question is Cc1cccc([C@H](C)[C@H](O)/C=C/[C@@H]2[C@@H]3[C@H](C[C@H]2O)O/C(=C\CCCc2nnn[nH]2)C3(F)F)c1 5.82

* * *

Below, each entry is listed alongside its reported Ki.
# Measured on: Human EP4 (Homo sapiens, UniProt P35408)
# Construct: expressed in transfected cells; host or cells: COS-7
# Procedure details: Receptor affinity, tritium-labeled PGE2 binding to membranes of transfected COS-7 cells
Unit µM implied. Number only.

Cc1cccc([C@@H](C)[C@H](O)/C=C/[C@@H]2[C@@H]3[C@H](C[C@H]2O)O/C(=C\CCCc2nnn[nH]2)C3(F)F)c1 [Compound F]    0.0066

// next item, Ki requested
Indicate its recorded Ki; the compound in question is CC#CCC(C)[C@H](O)/C=C/[C@@H]1[C@H]2c3cccc(CCCC(=O)O)c3O[C@H]2C[C@H]1O (mixture of isomers) [BPS, beraprost sodium, reference compound] 6.15

* * *

This section lists Ki readings for Human EP1 (Homo sapiens, UniProt P34995).
Unit µM implied. Number only.

CCCCC[C@H](O)/C=C/[C@H]1[C@H](O)CC(=O)[C@@H]1C/C=C\CCCC(=O)O [PGE2, reference compound]    0.0029
CC#CCC(C)[C@H](O)/C=C/[C@@H]1[C@H]2c3cccc(CCCC(=O)O)c3O[C@H]2C[C@H]1O (mixture of isomers) [BPS, beraprost sodium, reference compound]    0.942

// next item, Ki requested
Lab note: Human EP1 (Homo sapiens, UniProt P34995) assay, enter Ki for Cc1cccc([C@@H](C)[C@H](O)/C=C/[C@@H]2[C@@H]3[C@H](C[C@H]2O)O/C(=C\CCCc2nnn[nH]2)C3(F)F)c1 here 0.61

* * *

# Procedure details: Plasma pharmacokinetics after intravenous administration to rats
# Format: in vivo
# Applied conditions: male, rat, iv, 300 ug/kg
Readout: half-life (h)
Unit h implied. Number only.

Indicate its recorded half-life; the compound in question is Cc1cccc([C@@H](C)[C@H](O)/C=C/[C@@H]2[C@@H]3[C@H](C[C@H]2O)O/C(=C\CCCc2nnn[nH]2)C3(F)F)c1 2.63

* * *

Below, each entry is listed alongside its reported half-life.
# Procedure details: Plasma pharmacokinetics after intravenous administration to rats
# Type: in vivo
# Applied conditions: male, rat, rats, intravenous, summary of Table 3

Indicate its recorded half-life; the compound in question is Cc1cccc([C@@H](C)[C@H](O)/C=C/[C@@H]2[C@@H]3[C@H](C[C@H]2O)O/C(=C\CCCc2nnn[nH]2)C3(F)F)c1 1 to 2 h

Indicate its recorded half-life; the compound in question is Cc1cccc([C@H](C)[C@H](O)/C=C/[C@@H]2[C@@H]3[C@H](C[C@H]2O)O/C(=C\CCCc2nnn[nH]2)C3(F)F)c1 1 to 2 h
